Hey, just so you know, these numbers are from the supplement of paper PMC6555819.

Tested on: PXR:RXRa (NR concentration 270 nM, RXRa partner concentration 90 nM)
Experiment: PBM binding z-score (relative to random genomic background probes); higher = stronger binding; sequences stand for … in GC…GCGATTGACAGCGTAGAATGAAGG
Would you kindly list PBM binding z-score for each of these sequences?

Give the measured PBM binding z-score of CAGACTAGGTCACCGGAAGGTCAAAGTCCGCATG .
5.81

Fill blank: measured PBM binding z-score of the sequence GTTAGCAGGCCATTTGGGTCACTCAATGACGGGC is ____.
0.566

Item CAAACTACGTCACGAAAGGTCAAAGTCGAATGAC has what recorded PBM binding z-score?
5.52

PBM binding z-score lookup needed for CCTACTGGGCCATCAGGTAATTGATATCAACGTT , thanks.
-0.337

Fill blank: measured PBM binding z-score of the sequence GCTGCTAGGTCAACTGATGCTCAGCTAAAGCTCG is ____.
1.26

Which PBM binding z-score reading was recorded for the sequence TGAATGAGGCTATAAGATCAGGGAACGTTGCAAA ?
-0.467

What value of measured PBM binding z-score is listed for CATACTGGGCCACGAAAGGTCATTGATTCAGTGA ?
5.4

Using the record for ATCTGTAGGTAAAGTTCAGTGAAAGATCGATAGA , report its PBM binding z-score.
1.41

Please report the recorded PBM binding z-score for ATCTCTAGGTAAAGTTCAGTTAAAGATCGATAGA .
2.33

Any idea what its PBM binding z-score is? The sequence is ATACCAAGGTGATCGTGAGGTCCTTGATACTAAC
0.241

Can you share its PBM binding z-score? I mean this sequence: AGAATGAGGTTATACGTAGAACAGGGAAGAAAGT
1.09

Given ACTAGCAGGCCAAGTTTGGGTCACCCAAACAAAG , state its recorded PBM binding z-score.
1.08

###

Test system: THRa homodimer (NR concentration 90 nM)
Test: PBM binding z-score (relative to random genomic background probes); higher = stronger binding; sequences stand for … in GC…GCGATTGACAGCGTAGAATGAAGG
measured-parameter: PBM binding z-score

Enter reported PBM binding z-score observed with THRa homodimer (NR concentration 90 nM) for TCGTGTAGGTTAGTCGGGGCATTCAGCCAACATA
0.941

Requested read-out PBM binding z-score, target or system THRa homodimer (NR concentration 90 nM), entry CCGAGTAGCTTATGGGGCATTCAGGCAACGGTGA
-0.655

What measured PBM binding z-score is associated with GCTATTAGTTGAAAGGGCAACCGCATGATTCTCG on THRa homodimer (NR concentration 90 nM)?
-0.105

So what PBM binding z-score did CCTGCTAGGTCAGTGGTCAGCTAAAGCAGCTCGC get with THRa homodimer (NR concentration 90 nM)?
0.454

# returns recorded PBM binding z-score (system: THRa homodimer (NR concentration 90 nM)) for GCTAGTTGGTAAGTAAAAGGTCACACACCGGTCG
1.73

Quick check: PBM binding z-score on THRa homodimer (NR concentration 90 nM), item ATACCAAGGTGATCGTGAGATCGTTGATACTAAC ?
0.421

Short answer please: PBM binding z-score, THRa homodimer (NR concentration 90 nM), entry CCTCCTAGGTCATGGTCAGCTAATCTACAGTATG
1.92

Request - read-out PBM binding z-score | tested on THRa homodimer (NR concentration 90 nM) | sequence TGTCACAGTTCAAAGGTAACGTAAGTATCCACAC
-0.0814

Please state recorded PBM binding z-score (tested on THRa homodimer (NR concentration 90 nM)) of ACATGTAGGTTATCGGGTCATTCAGTTTGCGCAT
3.05

# query: PBM binding z-score | item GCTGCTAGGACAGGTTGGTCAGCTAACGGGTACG | system: THRa homodimer (NR concentration 90 nM)
-0.393

Write down the reported PBM binding z-score of TCTGCTAGGTCAACGATAGTCAGCTAATCTGCTA , test system: THRa homodimer (NR concentration 90 nM).
0.277

Any idea what PBM binding z-score came out for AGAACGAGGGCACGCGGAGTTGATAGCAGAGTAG on THRa homodimer (NR concentration 90 nM)?
-0.0223
